pIC50 values by entry
ASSAYED SYSTEM: human PDE4D catalytic domain (Homo sapiens, UniProt Q08499)
Sequence (Q08499 380-740): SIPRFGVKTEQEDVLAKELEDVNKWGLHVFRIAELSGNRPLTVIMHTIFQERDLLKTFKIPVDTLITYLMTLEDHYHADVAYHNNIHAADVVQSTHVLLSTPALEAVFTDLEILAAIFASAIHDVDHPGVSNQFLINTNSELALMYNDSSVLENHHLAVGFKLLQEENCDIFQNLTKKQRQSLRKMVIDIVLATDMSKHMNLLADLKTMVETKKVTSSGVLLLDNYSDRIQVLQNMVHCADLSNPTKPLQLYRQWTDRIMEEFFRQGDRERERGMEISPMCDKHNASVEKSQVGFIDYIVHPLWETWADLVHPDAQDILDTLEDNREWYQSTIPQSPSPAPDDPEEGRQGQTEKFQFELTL
pIC50: −log10 of the molar value.

COMPOUND | ASSAYED SYSTEM | pIC50
CCc1nn(CCCOC(=O)C2CCN(C(C)=O)CC2)c2c1C(=O)NCC1(CCOCC1)C2 [Example 99] | human PDE4D catalytic domain (Homo sapiens, UniProt Q08499) | < 6.30
CCc1nn(CCCOC(=O)c2ccon2)c2c1C(=O)NCC1(CCOCC1)C2 [Example 21] | human PDE4D catalytic domain (Homo sapiens, UniProt Q08499) | < 6.30
CCc1nn(CCCOC(=O)c2nc(C)oc2C)c2c1C(=O)NCC1(CCOCC1)C2 [Example 76] | human PDE4D catalytic domain (Homo sapiens, UniProt Q08499) | < 6.30

State pIC50 (human PDE4D catalytic domain (Homo sapiens, UniProt Q08499)) of CCc1nn(CCCOC(=O)c2cccc(C)n2)c2c1C(=O)NCC1(CCOCC1)C2 [Example 64] .
< 6.30

====

List of pIC50 tested on human PDE4D catalytic domain (Homo sapiens, UniProt Q08499).
pIC50: −log10 of the molar value.

// solved cases for pIC50 follow
MOLECULE | ASSAYED SYSTEM | pIC50
CCc1nn(CCCOC(=O)c2ccn(C)n2)c2c1C(=O)NCC1(CCOCC1)C2 | human PDE4D catalytic domain (Homo sapiens, UniProt Q08499) | < 6.30
CCc1nn(CCCOC(=O)c2ncsc2C)c2c1C(=O)NCC1(CCOCC1)C2 | human PDE4D catalytic domain (Homo sapiens, UniProt Q08499) | 6.30 to 7.00
CCc1nn(CCCOC(=O)c2cccnn2)c2c1C(=O)NCC1(CCOCC1)C2 | human PDE4D catalytic domain (Homo sapiens, UniProt Q08499) | < 6.30
CCc1noc(CC)c1C(=O)OCCCn1nc(CC)c2c1CC1(CCOCC1)CNC2=O | human PDE4D catalytic domain (Homo sapiens, UniProt Q08499) | 6.30 to 7.00
CCc1nn(CCCOC(=O)c2c[nH]nn2)c2c1C(=O)NCC1(CCOCC1)C2 | human PDE4D catalytic domain (Homo sapiens, UniProt Q08499) | 6.30 to 7.00
CCc1nn(CCCOC(=O)c2nonc2C)c2c1C(=O)NCC1(CCOCC1)C2 | human PDE4D catalytic domain (Homo sapiens, UniProt Q08499) | 6.30 to 7.00

Now turn to the next molecule.
Give pIC50 for CCc1nn(CCCOC(=O)c2cnn(C)c2)c2c1C(=O)NCC1(CCOCC1)C2
6.30 to 7.00

====

pIC50: −log10 of the molar value.
List of pIC50 tested on human PDE4D catalytic domain (Homo sapiens, UniProt Q08499).

Give pIC50 for CCc1nn(CC(C)(C)COC(=O)C2CCOC2)c2c1C(=O)NCC1(CCOCC1)C2 (stereo not shown)
6.30 to 7.00

Give pIC50 for CCc1nn(CCCOC(=O)c2cnsc2C)c2c1C(=O)NCC1(CCOCC1)C2
6.30 to 7.00

Give pIC50 for CCc1nn(CCCOC(=O)c2cc(C)nc(C)c2)c2c1C(=O)NCC1(CCOCC1)C2
6.30 to 7.00

Give pIC50 for CCc1nn(CCCOC(=O)C2CN(C(C)=O)C2)c2c1C(=O)NCC1(CCOCC1)C2
< 6.30

====

pIC50 values by entry
ASSAYED SYSTEM: human PDE4D catalytic domain (Homo sapiens)
pIC50: −log10 of the molar value.

MOLECULE | ASSAYED SYSTEM | pIC50
CCc1nn(CCCOC(=O)c2cnsc2)c2c1C(=O)NCC1(CCOCC1)C2 | human PDE4D catalytic domain (Homo sapiens) | 6.30 to 7.00
CCc1nn(CCCOC(=O)c2cc(C)no2)c2c1C(=O)NCC1(CCOCC1)C2 | human PDE4D catalytic domain (Homo sapiens) | 6.30 to 7.00
CCc1nn(CCCOC(=O)C2CCCSC2)c2c1C(=O)NCC1(CCOCC1)C2 (stereo not shown) | human PDE4D catalytic domain (Homo sapiens) | 6.30 to 7.00

Now turn to the next molecule.
State pIC50 (human PDE4D catalytic domain (Homo sapiens)) of CCc1nn(CCCOC(=O)c2cc(C)n(C)n2)c2c1C(=O)NCC1(CCOCC1)C2 .
< 6.30

====

List of IC50 tested on human PDE4D catalytic domain (Homo sapiens, UniProt Q08499).

MOLECULE | IC50
CCc1nn(CCCOC(=O)c2ncc(C)cn2)c2c1C(=O)NCC1(CCOCC1)C2 [Example 66] | > 500 nM
CCc1nn(CCCOC(=O)c2noc(C)c2C)c2c1C(=O)NCC1(CCOCC1)C2 [Example 74] | 100 to 500 nM
CCc1nn(CCCOC(=O)C2CCOCC2)c2c1C(=O)NCC1(CCOCC1)C2 [Example 59] | > 500 nM
CCc1nn(CCCOC(=O)c2nccn2C)c2c1C(=O)NCC1(CCOCC1)C2 [Example 40] | 100 to 500 nM
CCc1nn(CCCOC(=O)c2cnc(C)nc2)c2c1C(=O)NCC1(CCOCC1)C2 [Example 70] | 100 to 500 nM

Give IC50 for CCc1nn(CCCOC(=O)C2CCCOC2)c2c1C(=O)NCC1(CCOCC1)C2 (stereo not shown) [Example 58]
> 500 nM

Give IC50 for CCc1nn(CCCOC(=O)C2CCCN(C(=O)N(C)C)C2)c2c1C(=O)NCC1(CCOCC1)C2 (stereo not shown) [Example 106]
100 to 500 nM

Give IC50 for CCc1nn(CCCOC(=O)c2ncccn2)c2c1C(=O)NCC1(CCOCC1)C2 [Example 31]
> 500 nM

Give IC50 for CCc1nn(CCCOC(=O)c2cncn2C)c2c1C(=O)NCC1(CCOCC1)C2 [Example 41]
100 to 500 nM

Give IC50 for CCc1nn(CCCOC(=O)c2cnc(C)o2)c2c1C(=O)NCC1(CCOCC1)C2 [Example 48]
100 to 500 nM

Give IC50 for CCc1nn(CCCOC(=O)c2ncccc2C)c2c1C(=O)NCC1(CCOCC1)C2 [Example 62]
> 500 nM

Give IC50 for CCc1nn(CCCOC(=O)c2ccc(C)nc2C)c2c1C(=O)NCC1(CCOCC1)C2 [Example 87]
< 100 nM

Give IC50 for CCc1nn(CCCOC(=O)c2ncc[nH]2)c2c1C(=O)NCC1(CCOCC1)C2 [Example 19]
> 500 nM

Give IC50 for CCc1nn(C[C@@H](C)COC(=O)C2CCOC2)c2c1C(=O)NCC1(CCOCC1)C2 (stereo partly shown) [Example 108]
< 100 nM

Give IC50 for CCc1nn(CCCOC(=O)c2nnc(C)[nH]2)c2c1C(=O)NCC1(CCOCC1)C2 [Example 50]
> 500 nM

Give IC50 for CCc1nn(CCCOC(=O)c2cnc(C)s2)c2c1C(=O)NCC1(CCOCC1)C2 [Example 82]
100 to 500 nM

Give IC50 for CCc1nn(CCOC(=O)c2cc(C)ns2)c2c1C(=O)NCC1(CCOCC1)C2 [Example 13]
100 to 500 nM

====

List of IC50 tested on human PDE4D catalytic domain (Homo sapiens).

MOLECULAR STRING | IC50
CCc1nn(CCOC(=O)Cc2cccn2C)c2c1C(=O)NCC1(CCOCC1)C2 | > 500 nM
CCc1nn(C[C@@H](C)COC(=O)C2CCOCC2)c2c1C(=O)NCC1(CCOCC1)C2 | < 100 nM

Give IC50 for CCc1nn(CCCOC(=O)c2ccc3ncn(C)c3c2)c2c1C(=O)NCC1(CCOCC1)C2
< 100 nM

Give IC50 for CCc1nn(CCOC(=O)c2cnn(C)c2)c2c1C(=O)NCC1(CCOCC1)C2
> 500 nM

====

ASSAYED SYSTEM: human PDE4D catalytic domain (Homo sapiens, UniProt Q08499)
pIC50: −log10 of the molar value.
MEASURE: pIC50

Give pIC50 for CCc1nn(CCCOC(=O)c2cnc(C)[nH]2)c2c1C(=O)NCC1(CCOCC1)C2
6.30 to 7.00

Give pIC50 for CCc1nn(CCCOC(=O)c2conc2C)c2c1C(=O)NCC1(CCOCC1)C2
6.30 to 7.00

Give pIC50 for CCc1nn(CCCOC(=O)c2ccno2)c2c1C(=O)NCC1(CCOCC1)C2
6.30 to 7.00

Give pIC50 for CCc1nn(CCOC(=O)Cc2csc(C)n2)c2c1C(=O)NCC1(CCOCC1)C2
< 6.30

====

List of IC50 tested on human PDE4D catalytic domain (Homo sapiens, UniProt Q08499).

MOLECULE | IC50
CCc1nn(CCCOC(=O)c2ccnn2C)c2c1C(=O)NCC1(CCOCC1)C2 [Example 35] | 100 to 500 nM
CCc1nn(CCOC(=O)C2CCOCC2)c2c1C(=O)NCC1(CCOCC1)C2 [Example 8] | > 500 nM

Now turn to the next molecule.
Give IC50 for CCc1nn(CCCOC(=O)c2cncs2)c2c1C(=O)NCC1(CCOCC1)C2 [Example 56]
100 to 500 nM
